assay: PK and tissue distribution after single oral administration in Ba/F3-EPOR-JAK2^V617F tumor-bearing mice; type: in vivo; details: BALB/c nude, mouse, spleen, oral, 30 mg/kg; single; 12 h; read-out: FM concentration, Spleen
MEASURED ENDPOINT: concentration at 12 h (ng/g)
Kindly answer with a numeric value in ng/g, unit omitted.

In: Which concentration at 12 h is listed for Cc1cnc(Nc2ccc(N3CCC(N(C)CCO)CC3)c(F)c2)nc1-c1cnn(C(C)C)c1 [FM] ?
Out: 358

* * *

assay: PK and tissue distribution after repeated oral administration in Ba/F3-EPOR-JAK2^V617F tumor-bearing mice; type: in vivo; conditions: BALB/c nude, mouse, spleen and plasma, po, 30 mg/kg, repeated oral 30 mg/kg; read-out: Cmax of spleen higher than that of plasma
MEASURED ENDPOINT: Kp
Enter a number only.

In: Using the record for Cc1cnc(Nc2ccc(N3CCC(N(C)CCO)CC3)c(F)c2)nc1-c1cnn(C(C)C)c1 , report its Kp.
Out: 14.1

* * *

experiment: Bioavailability; conditions: dog, in vivo; dogs; data not shown
MEASURED ENDPOINT: bioavailability (%)
Quick note: give the figure in %, leave out the unit.

In: Need bioavailability of Cc1cnc(Nc2ccc(OCCN3CCCC3)cc2)nc1Nc1cccc(S(=O)(=O)NC(C)(C)C)c1 [Fedratinib, reference compound] , thanks.
Out: 37

* * *

assay: PK and tissue distribution after single oral administration in Ba/F3-EPOR-JAK2^V617F tumor-bearing mice; format: in vivo; details: BALB/c nude, mouse; Plasma; single oral 30 mg/kg
MEASURED ENDPOINT: half-life (h)
Kindly answer with a numeric value in h, unit omitted.

In: Item under review: Cc1cnc(Nc2ccc(N3CCC(N(C)CCO)CC3)c(F)c2)nc1-c1cnn(C(C)C)c1 [FM] . Reported half-life?
Out: 2.31

* * *

experiment: PK and tissue distribution after single oral administration in Ba/F3-EPOR-JAK2^V617F tumor-bearing mice; format: in vivo; conditions: BALB/c nude, mouse, spleen, oral, 30 mg/kg; single; 0.5 h; read-out: FM concentration, Spleen
MEASURED ENDPOINT: concentration at 0.5 h (ng/g)
Report the value in ng/g with no unit label.

In: Consider the compound shown here: Cc1cnc(Nc2ccc(N3CCC(N(C)CCO)CC3)c(F)c2)nc1-c1cnn(C(C)C)c1 [FM] What is its recorded concentration at 0.5 h?
Out: 10400

* * *

test: PK and tissue distribution after repeated oral administration in Ba/F3-EPOR-JAK2^V617F tumor-bearing mice; assay type: in vivo; conditions: BALB/c nude, mouse, plasma, oral, 30 mg/kg; repeated; 8 h; read-out: FM concentration, Plasma
MEASURED ENDPOINT: concentration at 8 h (ng/mL)
Numeric answer only, unit ng/mL assumed.

In: Bench note: what concentration at 8 h did Cc1cnc(Nc2ccc(N3CCC(N(C)CCO)CC3)c(F)c2)nc1-c1cnn(C(C)C)c1 show?
Out: 106

* * *

assay: PK and tissue distribution after repeated oral administration in Ba/F3-EPOR-JAK2^V617F tumor-bearing mice; assay type: in vivo; conditions: BALB/c nude, mouse, stomach, oral, 30 mg/kg; repeated; 2 h; read-out: FM concentration, Stomach
MEASURED ENDPOINT: concentration at 2 h
Include the unit right after the number.

In: Quick one: concentration at 2 h of Cc1cnc(Nc2ccc(N3CCC(N(C)CCO)CC3)c(F)c2)nc1-c1cnn(C(C)C)c1 [FM] ?
Out: 19300 ng/g
